# Test system: Ba/F3-TPM3-NTRK1-G667C cells
# method: Growth inhibition of Ba/F3-TPM3-NTRK1-G667C cells (Cell Titer-Glo)
# Assay type: cell-based
# details: 72 hours, CTG; read-out: inhibitory activity IC50 Ba/F3-TPM3-NTRK1-G667C
metricName: IC50

Examples with answers:
Fc1cnc2c(c1)[C@H]1C[C@H](F)CN1c1ccc3ncc(n3n1)-c1nccc(n1)CCO2: 10.1 nM
CC1Nc2ccc3ncc(n3n2)-c2cncc(c2)COc2ccc(F)cc21 (stereo not shown): 220 nM
C[C@H]1Nc2ccc3ncc(n3n2)-c2cc(ccn2)OCc2ncc(F)cc21: < 100 nM

Could you now look at the following molecule, please?
Quick one: IC50 of `C[C@H]1Nc2ccc3ncc(n3n2)-c2cc(cnn2)COc2ncc(F)cc21` ?
< 100 nM

###

pIC50 values, listed per item
# Tested on: Ba/F3-TPM3-NTRK1-G667C cells
# method: Growth inhibition of Ba/F3-TPM3-NTRK1-G667C cells (Cell Titer-Glo)
# Format: cell-based
# details: 72 hours, CTG; read-out: inhibitory activity IC50 Ba/F3-TPM3-NTRK1-G667C
pIC50: −log10 of the molar value.

Fc1ccc2c(c1)[C@H]1CCCN1c1ccc3ncc(n3n1)-c1cc(ccn1)CCO2: > 7.00

Quick one: pIC50 of `C[C@H]1Nc2ccc3ncc(n3n2)-c2nccc(n2)COc2ncc(F)cc21` ?
> 7.00

Quick one: pIC50 of `Fc1ccc2c(c1)C1(CC1)Nc1ccc3ncc(n3n1)-c1cc(ccn1)CO2` ?
> 7.00

Quick one: pIC50 of `Fc1ccc2c(c1)[C@H]1C[C@H](F)CN1c1ccc3ncc(n3n1)-c1cc(ncn1)CCO2` ?
8.34

Quick one: pIC50 of `Fc1cnc2c(c1)[C@H]1C[C@H](F)CN1c1ccc3ncc(n3n1)-c1cc(ccn1)CO2` ?
9.06

Quick one: pIC50 of `C[C@H]1Nc2ccc3ncc(n3n2)-c2cc(ccn2)CCOc2ncc(F)cc21` ?
> 7.00

Quick one: pIC50 of `Fc1ccc2c(c1)[C@H]1C[C@H](F)CN1c1ccc3ncc(n3n1)-c1cc(cnn1)CCO2` ?
8.37

###

# Test system: Ba/F3-TPM3-NTRK1-G667C cells
# method: Growth inhibition of Ba/F3-TPM3-NTRK1-G667C cells (Cell Titer-Glo)
# Type: cell-based
# details: 72 hours, CTG; read-out: inhibitory activity IC50 Ba/F3-TPM3-NTRK1-G667C
metricName: IC50

Examples with answers:
Fc1cnc2c(c1)[C@H]1C[C@H](F)CN1c1ccc3ncc(n3n1)-c1cc(cnn1)CO2 [Example I-68]: 0.0028 µM
Fc1ccc2c(c1)[C@H]1CCCN1c1ccc3ncc(n3n1)-c1cc(ncn1)CCO2 [Example I-69]: < 0.1 µM
C[C@H]1Nc2ccc3ncc(n3n2)-c2cc(ncn2)COc2ccc(F)cc21 [Example I-78]: < 0.1 µM

Could you now look at the following compound, please?
Quick one: IC50 of C[C@H]1Nc2ccc3ncc(n3n2)-c2cc(ccn2)CCOc2ccccc21 [Example I-28] ?
< 0.1 µM

###

pIC50 values, listed per item
# Tested on: Ba/F3-TPM3-NTRK1-G595R cells
# method: Growth inhibition of Ba/F3-TPM3-NTRK1-G595R cells (Cell Titer-Glo)
# Type: cell-based
# details: 72 hours, CTG; read-out: inhibitory activity IC50 Ba/F3-TPM3-NTRK1-G595R
Interpret pIC50 as the negative base-10 log of the concentration measured in mol/L.

Examples with answers:
Fc1cnc2c(c1)[C@H]1C[C@H](F)CN1c1ccc3ncc(n3n1)-c1cc(ncn1)CCO2: 8.82
Fc1cnc2c(c1)[C@H]1C[C@H](F)CN1c1ccc3ncc(n3n1)-c1cc(ncn1)CO2: 8.60
Fc1cnc2c(c1)[C@H]1C[C@H](F)CN1c1ccc3ncc(n3n1)-c1cc(cnn1)CCO2: 9.00
C[C@@H]1CCc2ncc(F)cc2[C@H]2CCCN2c2ccn3ncc(c3n2)C(=O)N1 [LOXO-195, reference compound]: 8.00
Fc1ccc2c(c1)[C@H]1C[C@H](F)CN1c1ccc3ncc(n3n1)-c1cc(cnn1)CO2: 9.40

Fill in the recorded pIC50 for this compound, with Ba/F3-TPM3-NTRK1-G595R cells as test system: `Fc1ccc2c(c1)[C@H]1C[C@H](F)CN1c1ccc3ncc(n3n1)-c1cc(ccn1)CO2`
9.70

Fill in the recorded pIC50 for this compound, with Ba/F3-TPM3-NTRK1-G595R cells as test system: CC1Nc2ccc3ncc(n3n2)-c2cncc(c2)COc2ccc(F)cc21 (stereo not shown)
6.70

Fill in the recorded pIC50 for this compound, with Ba/F3-TPM3-NTRK1-G595R cells as test system: `Fc1ccc2c(c1)[C@H]1C[C@H](F)CN1c1ccc3ncc(n3n1)-c1nccc(n1)CO2`
9.15

Fill in the recorded pIC50 for this compound, with Ba/F3-TPM3-NTRK1-G595R cells as test system: `Fc1ccc2c(c1)CNc1ccc3ncc(n3n1)-c1cc(ccn1)CO2`
7.04

Fill in the recorded pIC50 for this compound, with Ba/F3-TPM3-NTRK1-G595R cells as test system: `Fc1ccc2c(c1)[C@H]1C[C@H](F)CN1c1ccc3ncc(n3n1)-c1cc(ncn1)CO2`
8.68
